Target: GR (collagenase promoter) (Homo sapiens, UniProt P04150)
Construct: endogenous in cells; host or cells: HeLa cells stably transfected with promoter-luciferase reporters (MMTV, IL-6 or collagenase promoter)
Experiment: reporter gene test in HeLa cells, transrepression, collagenase promoter-luciferase
Format: cell-based
Settings: TPA-induced
measurementLabel: Transrepression (TR)(Collagenase Promoter) Efficacy

Example entries and their recorded answers appear below.
compound	dataValue
C[C@@H]1C[C@H]2[C@@H]3CCC4=CC(=O)C=C[C@]4(C)[C@@]3(F)[C@@H](O)C[C@]2(C)[C@@]1(O)C(=O)CO [Dexamethasone, reference compound]	100%
Cc1noc(=O)c2ccc(NC(=O)C(O)(CC3(c4cc(F)ccc4O)CCC3)C(F)(F)F)cc12 (single isomer, unassigned)	105%
Cc1noc(=O)c2ccc(NC(=O)C(O)(CC(C)(C)c3cccc4ccoc34)C(F)(F)F)cc12 (single isomer, unassigned)	78%
C[C@]12C=CC(=O)C=C1CC[C@@H]1[C@@H]2[C@@H](O)C[C@@]2(C)[C@H]1CC[C@]2(O)C(=O)CO [Prednisolone, reference compound]	96%

Read the next record carefully.
// query Read off the recorded Transrepression (TR)(Collagenase Promoter) Efficacy for Cc1noc(=O)c2ccc(NC(=O)C(O)(CC(C)(C)c3cccc4c3OCO4)C(F)(F)F)cc12 (single isomer, unassigned; (+))
// result 92%

* * *

Target: GR (IL-6 promoter) (Homo sapiens, UniProt P04150)
Experiment: reporter gene test in HeLa cells, transrepression, IL-6 promoter-luciferase
Details: HeLa, read-out: Transrepression (TR)(IL-6-Promoter) Efficacy
measurementLabel: Emax (%)
Give bare numbers, in %.

Example entries and their recorded answers appear below.
compound	Emax, %
Cc1noc(=O)c2ccc(NC(=O)C(O)(CC3(c4cc(F)ccc4O)CCC3)C(F)(F)F)cc12 (single isomer, unassigned)	79
Cc1noc(=O)c2ccc(NC(=O)C(O)(CC3(c4cccc5c4OCO5)CC3)C(F)(F)F)cc12 (racemic)	66
Cc1noc(=O)c2ccc(NC(=O)C(O)(CC(C)(C)c3cc(F)cc4c3OCO4)C(F)(F)F)cc12 (single isomer, unassigned) [Example 19]	91
COc1c(F)cccc1C1(CC(O)(C(=O)Nc2ccc3c(=O)onc(C)c3c2)C(F)(F)F)CCC1 (racemic) [Example 31]	67

Read the next record carefully.
// query Read off the recorded Emax for Cc1noc(=O)c2ccc(NC(=O)C(O)(CC(C)(C)c3cccc4c3OCO4)C(F)(F)F)cc12 (single isomer, unassigned; (+)) [Example 2]
// result 66

* * *

Target: GR (MMTV promoter) (Homo sapiens)
Sequence (P04150 1-777): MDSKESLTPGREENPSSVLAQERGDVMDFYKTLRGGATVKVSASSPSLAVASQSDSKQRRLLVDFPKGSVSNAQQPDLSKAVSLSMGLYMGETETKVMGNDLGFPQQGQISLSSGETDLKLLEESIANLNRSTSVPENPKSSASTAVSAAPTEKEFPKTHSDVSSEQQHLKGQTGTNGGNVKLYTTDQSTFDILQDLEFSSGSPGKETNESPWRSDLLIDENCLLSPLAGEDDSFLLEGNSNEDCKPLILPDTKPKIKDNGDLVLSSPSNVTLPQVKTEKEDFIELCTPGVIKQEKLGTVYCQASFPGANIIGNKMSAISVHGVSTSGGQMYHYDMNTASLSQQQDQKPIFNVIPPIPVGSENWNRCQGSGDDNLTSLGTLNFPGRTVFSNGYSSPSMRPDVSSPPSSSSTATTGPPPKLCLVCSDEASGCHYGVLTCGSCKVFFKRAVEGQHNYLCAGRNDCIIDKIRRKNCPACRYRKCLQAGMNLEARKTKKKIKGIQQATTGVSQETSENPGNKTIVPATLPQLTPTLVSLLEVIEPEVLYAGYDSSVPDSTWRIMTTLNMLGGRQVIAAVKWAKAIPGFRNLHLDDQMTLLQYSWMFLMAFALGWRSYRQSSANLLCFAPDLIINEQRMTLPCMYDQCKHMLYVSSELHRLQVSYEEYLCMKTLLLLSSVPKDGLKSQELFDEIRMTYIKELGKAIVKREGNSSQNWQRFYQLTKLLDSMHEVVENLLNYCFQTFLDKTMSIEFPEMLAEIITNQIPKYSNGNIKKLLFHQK
Assay: reporter gene test in HeLa cells, transactivation, MMTV promoter-luciferase
Conditions: MMTV promoter EC50 : IL-6 promoter IC50
measurementLabel: TA:TR EC50:IC50

Example entries and their recorded answers appear below.
compound	testedOn	dataValue
CCc1noc(=O)c2ccc(NC(=O)C(O)(CC(C)(C)c3cccc4ccoc34)C(F)(F)F)cc12 (single isomer, unassigned; (+)) [Example 8]	GR (MMTV promoter) (Homo sapiens)	17.8
Cc1noc(=O)c2ccc(NC(=O)C(O)(CC3(c4cc(F)ccc4O)CCC3)C(F)(F)F)cc12 (single isomer, unassigned) [Example 29]	GR (MMTV promoter) (Homo sapiens)	8.7
Cc1noc(=O)c2ccc(NC(=O)C(O)(CC3(c4cccc(F)c4O)CCC3)C(F)(F)F)cc12 (single isomer, unassigned) [Example 33]	GR (MMTV promoter) (Homo sapiens)	22.3
Cc1noc(=O)c2ccc(NC(=O)C(O)(CC(C)(C)c3cccc4c3OCO4)C(F)(F)F)cc12 (single isomer, unassigned; (+)) [Example 2]	GR (MMTV promoter) (Homo sapiens)	11.9
Cc1noc(=O)c2ccc(NC(=O)C(O)(CC(C)(C)c3cccc4ccoc34)C(F)(F)F)cc12 (single isomer, unassigned) [Example 23]	GR (MMTV promoter) (Homo sapiens)	6.2

Read the next record carefully.
// query Read off the recorded TA:TR EC50:IC50 for CCc1noc(=O)c2ccc(NC(=O)C(O)(CC3(c4cccc5c4OCC5)CCC3)C(F)(F)F)cc12 (single isomer, unassigned) [Example 17]
// result 8.7

Reference source for all entries: patent US7112584B2
